Entry source: patent US12234504B1

Let's look at some molecules and their measured Fluorescent Intensity #1.
molecular target: E. coli DNA gyrase (Escherichia coli, UniProt P0AES4+P0AES6); construct: made in house; type: biochemical; details: 50-compound library screen, 50 μM compound, duplicate 1; low fluorescence = gyrase poison
Sequence (P0AES4 whole entry, one chain of several): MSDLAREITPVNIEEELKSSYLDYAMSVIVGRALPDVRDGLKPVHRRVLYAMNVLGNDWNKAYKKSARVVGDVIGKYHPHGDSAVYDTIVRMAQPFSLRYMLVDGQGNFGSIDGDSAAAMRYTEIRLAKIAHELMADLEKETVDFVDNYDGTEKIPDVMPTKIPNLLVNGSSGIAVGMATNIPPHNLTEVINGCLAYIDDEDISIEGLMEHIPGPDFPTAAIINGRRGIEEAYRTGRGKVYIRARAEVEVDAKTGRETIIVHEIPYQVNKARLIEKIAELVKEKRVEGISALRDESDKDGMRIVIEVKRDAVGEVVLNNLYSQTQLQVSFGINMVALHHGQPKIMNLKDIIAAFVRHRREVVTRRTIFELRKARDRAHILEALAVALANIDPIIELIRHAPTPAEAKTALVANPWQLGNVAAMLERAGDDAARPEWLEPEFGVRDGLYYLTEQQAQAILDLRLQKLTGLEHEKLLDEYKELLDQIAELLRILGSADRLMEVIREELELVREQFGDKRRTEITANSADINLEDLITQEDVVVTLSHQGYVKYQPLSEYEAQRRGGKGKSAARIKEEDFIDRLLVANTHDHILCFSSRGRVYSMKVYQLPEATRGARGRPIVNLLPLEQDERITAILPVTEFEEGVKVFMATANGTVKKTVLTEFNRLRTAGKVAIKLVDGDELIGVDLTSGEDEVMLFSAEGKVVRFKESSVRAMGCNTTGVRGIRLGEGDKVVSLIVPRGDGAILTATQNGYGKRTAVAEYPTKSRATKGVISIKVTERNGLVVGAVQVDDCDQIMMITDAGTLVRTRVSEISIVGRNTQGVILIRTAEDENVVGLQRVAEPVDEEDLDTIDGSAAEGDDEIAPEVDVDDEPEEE
Positions of bridges follow the written chain, without caps; N, C: chain ends. Non-standard residues stand in square brackets, D forms with d. Residues, ends and D or L forms follow the SMILES beside them. *: point of attachment. Ileψ(thiazoline)Cys = CC[C@H](C)[C@H](N)C1=N[C@H](C(=O)*)CS1; dOrn = NCCC[C@@H](N)C(=O)O

molecule	Fluorescent Intensity #1
O=C[C@H](O)[C@@H](O)[C@@H](O)[C@H](O)CO	4111
CC[C@H](C)[C@H](N)C1=N[C@H](C(=O)N[C@@H](CC(C)C)C(=O)N[C@H](CCC(=O)O)C(=O)N[C@H](C(=O)N[C@H]2CCCCNC(=O)[C@H](CC(N)=O)NC(=O)[C@@H](CC(=O)O)NC(=O)[C@H](Cc3cnc[nH]3)NC(=O)[C@@H](Cc3ccccc3)NC(=O)[C@H]([C@@H](C)CC)NC(=O)[C@@H](CCCN)NC2=O)[C@@H](C)CC)CS1 [bacitracin] ({Ileψ(thiazoline)Cys}-L[dE]IK[dOrn]I[dF]H[dD]N; lactam 4-C)	7743
CN(C)[C@@H]1C(O)=C(C(N)=O)C(=O)[C@@]2(O)C(O)=C3C(=O)c4c(O)cccc4[C@@](C)(O)[C@H]3C[C@@H]12	9594
O=C[C@H](O)[C@@H](O)[C@H](O)[C@H](O)CO	4444
O=C[C@H](O)[C@@H](O)[C@@H](O)CO	4824

###

target: E. coli DNA gyrase (Escherichia coli, UniProt P0AES4+P0AES6); construct: made in house; assay type: biochemical; details: 50-compound library screen, 50 μM compound, duplicate 2; low fluorescence = gyrase poison
Positions of bridges follow the written chain, without caps; N, C: chain ends. Non-standard residues stand in square brackets, D forms with d. Residues, ends and D or L forms follow the SMILES beside them. *: point of attachment. Ileψ(thiazoline)Cys = CC[C@H](C)[C@H](N)C1=N[C@H](C(=O)*)CS1; dOrn = NCCC[C@@H](N)C(=O)O

molecule	testTarget	Fluorescent Intensity #2
O=C[C@H](O)[C@@H](O)[C@@H](O)CO	E. coli DNA gyrase (Escherichia coli, UniProt P0AES4+P0AES6)	7032
CC[C@H](C)[C@H](N)C1=N[C@H](C(=O)N[C@@H](CC(C)C)C(=O)N[C@H](CCC(=O)O)C(=O)N[C@H](C(=O)N[C@H]2CCCCNC(=O)[C@H](CC(N)=O)NC(=O)[C@@H](CC(=O)O)NC(=O)[C@H](Cc3cnc[nH]3)NC(=O)[C@@H](Cc3ccccc3)NC(=O)[C@H]([C@@H](C)CC)NC(=O)[C@@H](CCCN)NC2=O)[C@@H](C)CC)CS1 [bacitracin] ({Ileψ(thiazoline)Cys}-L[dE]IK[dOrn]I[dF]H[dD]N; lactam 4-C)	E. coli DNA gyrase (Escherichia coli, UniProt P0AES4+P0AES6)	6533
O=C[C@H](O)[C@@H](O)[C@H](O)[C@H](O)CO	E. coli DNA gyrase (Escherichia coli, UniProt P0AES4+P0AES6)	5984
CCN(CC)CCCC(C)Nc1ccnc2cc(Cl)ccc12 (stereo not drawn)	E. coli DNA gyrase (Escherichia coli, UniProt P0AES4+P0AES6)	8002
O=C[C@H](O)[C@@H](O)[C@@H](O)[C@H](O)CO	E. coli DNA gyrase (Escherichia coli, UniProt P0AES4+P0AES6)	6277
CN(C)[C@@H]1C(O)=C(C(N)=O)C(=O)[C@@]2(O)C(O)=C3C(=O)c4c(O)cccc4[C@@](C)(O)[C@H]3C[C@@H]12	E. coli DNA gyrase (Escherichia coli, UniProt P0AES4+P0AES6)	9920
